Tested on: SW-620 colon
ASSAY_TEXT: NCI tumour cell line growth inhibition, 48 h; in the data active means GI50 below about 0.43 µM; inactive means the rest
Outcomes: Yes (active), No (inactive)

{"MOLECULE": "COc1cc2c(cc1OCCOS(C)(=O)=O)N=C[C@@H]1CCCN1C2=O", "ASSIGNED_CLASS": "No"}
{"MOLECULE": "CCOC(=O)c1sc2nc3sc(N=Nc4ccc(Cl)cc4)c(O)n3c(=S)c2c1C", "ASSIGNED_CLASS": "No"}
{"MOLECULE": "CCC(C)n1cc(C)c2c(C(=O)NCc3c(C)cc(C)[nH]c3=O)cc(Br)cc21 (stereo not given)", "ASSIGNED_CLASS": "No"}
{"MOLECULE": "CS(=O)CCCCCN=C=S (stereo not given)", "ASSIGNED_CLASS": "No"}
{"MOLECULE": "CCN(CC)CCCNc1cccc2c(SCc3ccccc3)ccnc12", "ASSIGNED_CLASS": "No"}
{"MOLECULE": "Cc1cccc(Oc2nccc(-c3c(-c4ccc(F)cc4)ncn3C3CCNCC3)n2)c1C", "ASSIGNED_CLASS": "No"}
{"MOLECULE": "CCCCCCCC/C=C/CCCCCCCC1=NCC[N+]1(CCO)CCO", "ASSIGNED_CLASS": "No"}
{"MOLECULE": "CCOc1ccc([C@@H]2[C@@H](Oc3ccccc3)C(=O)N2c2cc(OC)c(OC)c(OC)c2)cc1", "ASSIGNED_CLASS": "Yes"}
{"MOLECULE": "COc1ccccc1-n1c(-c2cc(O)ccc2C)cn2c3c(=O)[nH]c(=O)n(C)c3nc12", "ASSIGNED_CLASS": "No"}
{"MOLECULE": "CC(=O)c1c(C(F)(F)F)n([O-])c2ccc(Cl)cc2[n+]1=O", "ASSIGNED_CLASS": "No"}

---

Reported TGI by item:
Test system: NCI-H23 lung
ASSAY_TEXT: NCI tumour cell line growth inhibition, 48 h
QUANTITY_MEASURED: TGI

{"COMPOUND": "COCC1CCCN1c1ccc(/C=C(/C#N)C(N)=S)cc1 (stereo not given)", "QUANTITY_MEASURED": "TGI", "OBSERVED_MEASUREMENT": "> 100 µM"}
{"COMPOUND": "NC(=NCCCOc1ccc(Cl)cc1)Nc1ccc(Cl)cc1", "QUANTITY_MEASURED": "TGI", "OBSERVED_MEASUREMENT": "7.43 µM"}
{"COMPOUND": "COc1ccc(C2=NNC(=O)OC2c2ccccc2)cc1 (stereo not given)", "QUANTITY_MEASURED": "TGI", "OBSERVED_MEASUREMENT": "> 100 µM"}
{"COMPOUND": "CCC[CH2][Sn]([CH2]CCC)([O]C(=O)c1cc(F)cc(F)c1)[O]C(=O)c1cc(F)cc(F)c1", "QUANTITY_MEASURED": "TGI", "OBSERVED_MEASUREMENT": "2 µM"}
{"COMPOUND": "NC(CSC(c1ccccc1)(c1ccccc1)c1ccc(Cl)cc1)C(=O)O (stereo not given)", "QUANTITY_MEASURED": "TGI", "OBSERVED_MEASUREMENT": "41.9 µM"}
{"COMPOUND": "CCOc1ccc([C@@H]2[C@@H](Oc3ccccc3)C(=O)N2c2cc(OC)c(OC)c(OC)c2)cc1", "QUANTITY_MEASURED": "TGI", "OBSERVED_MEASUREMENT": "> 100 µM"}
{"COMPOUND": "CC1(C)CC(=O)C2=C(C1)OC1=C(C(=O)CC(C)(C)C1)C2CC(c1ccccc1)c1ccc(O)c(O)c1O (stereo not given)", "QUANTITY_MEASURED": "TGI", "OBSERVED_MEASUREMENT": "> 10 µM"}
{"COMPOUND": "CC(C)(C)[Si](C)(C)OCC1OC(n2cnc3c(NC(=O)c4ccccc4)ncnc32)CC1O (stereo not given)", "QUANTITY_MEASURED": "TGI", "OBSERVED_MEASUREMENT": "> 100 µM"}
{"COMPOUND": "OC12COc3ccccc3C1Oc1ccccc1C2 (stereo not given)", "QUANTITY_MEASURED": "TGI", "OBSERVED_MEASUREMENT": "> 100 µM"}
{"COMPOUND": "CC1(C2(C)OC(=O)c3ccccc32)OC(=O)c2ccccc21 (stereo not given)", "QUANTITY_MEASURED": "TGI", "OBSERVED_MEASUREMENT": "> 100 µM"}
{"COMPOUND": "O=C(NNC(=S)Nc1ccccc1)c1ccccc1Nc1ccccc1C(=O)NNC(=S)Nc1ccccc1", "QUANTITY_MEASURED": "TGI", "OBSERVED_MEASUREMENT": "41.5 µM"}
{"COMPOUND": "O=c1cc(N2CCOCC2)[nH]c(=O)n1-c1cccc(C(F)(F)F)c1", "QUANTITY_MEASURED": "TGI", "OBSERVED_MEASUREMENT": "> 100 µM"}
{"COMPOUND": "O=C1C(/C=C/c2ccc(Cl)cc2)=NNC2N1N=C1NC(=O)C3(NN12)c1ccccc1-c1ccccc13 (stereo not given)", "QUANTITY_MEASURED": "TGI", "OBSERVED_MEASUREMENT": "> 100 µM"}
{"COMPOUND": "COc1cc(CCCOC(=O)/C=C/c2ccc(O)c(O)c2)cc(O)c1O", "QUANTITY_MEASURED": "TGI", "OBSERVED_MEASUREMENT": "> 100 µM"}
{"COMPOUND": "CC1(C)CC[C@]2(C)CC=C3[C@]4(C)CC[C@H]5C(C)(C)C(=O)CC[C@]5(C)[C@H]4CC[C@@]3(C)[C@H]2C1", "QUANTITY_MEASURED": "TGI", "OBSERVED_MEASUREMENT": "> 100 µM"}
{"COMPOUND": "CC(C)[C@@]12C[C@@H](OC(=O)[C@H]3CO3)[C@@](C)(O1)[C@@H]1CC[C@@H](C)[C@H]1[C@@H]2OC(=O)/C=C/c1ccccc1", "QUANTITY_MEASURED": "TGI", "OBSERVED_MEASUREMENT": "> 100 µM"}
{"COMPOUND": "C=C/C=C(\\NC(=O)C(Cl)(Cl)Cl)[Si](C)(C)C", "QUANTITY_MEASURED": "TGI", "OBSERVED_MEASUREMENT": "> 100 µM"}
{"COMPOUND": "COC1(OC)CC2C=C(S(=O)(=O)c3ccccc3)C1N(Cc1ccccc1)C2=O (stereo not given)", "QUANTITY_MEASURED": "TGI", "OBSERVED_MEASUREMENT": "40.5 µM"}
{"COMPOUND": "CSC(C1c2ccccc2N(C)C2=NC(=O)N(C)C(=O)C21Cl)S(=O)(=O)c1ccc(C)cc1 (stereo not given)", "QUANTITY_MEASURED": "TGI", "OBSERVED_MEASUREMENT": "83.5 µM"}
{"COMPOUND": "COc1ccc(/C=C2\\CCCCC2=O)cc1", "QUANTITY_MEASURED": "TGI", "OBSERVED_MEASUREMENT": "> 100 µM"}
